B1: SMG5 (parent)
chain: TRKLSPGKKRCKDIKRLLVNFMYL

Variants of: B1
Assay: protein stability index of a GFP-peptide fusion (GPS, HEK-293T) (PSI 1-6); higher = more stable;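 note: lentivirally expressed fusions sorted by FACS into six bins by GFP to DsRed ratio, PSI derived from sequencing read proportions per bin multiplied by bin number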
Conditions: c terminus: a fixed tail appended
Please use Met whenever protein stability index is not below 3, and Not met whenever it is.

# macromolecule.sequence, classification
measured = [
    ("TRKLSPGKKRCKDIKRLLVNFMSL", "Met"),
    ("MRKLSPGKKRCKDIKRLLVNFMYL", "Not met"),
    ("TPKLSPGKKRCKDIKRLLVNFMYL", "Not met"),
    ("TRKLSPGKKRCKDIKRLLPNFMYL", "Not met"),
    ("QRKLSPGKKRCKDIKRLLVNFMYL", "Not met"),
]

q: Check the entry `TRKLDPGKKRCKDIKRLLVNFMYL` : does protein stability index equal or exceed 3?
a: Not met

q: Check the entry `TRKLSPGKKRCKDIKRLLVNFMYT` : does protein stability index equal or exceed 3?
a: Not met

q: Check the entry `VRKLSPGKKRCKDIKRLLVNFMYL` : does protein stability index equal or exceed 3?
a: Met

q: Check the entry `TRKLSPGKKRCNDIKRLLVNFMYL` : does protein stability index equal or exceed 3?
a: Not met

q: Check the entry `TRKLSPGKKRCKDIKRLLVNNMYL` : does protein stability index equal or exceed 3?
a: Not met

q: Check the entry `TRKLSPGKKRCFDIKRLLVNFMYL` : does protein stability index equal or exceed 3?
a: Not met

q: Check the entry `TRKLSPGKKRCKIIKRLLVNFMYL` : does protein stability index equal or exceed 3?
a: Met
